Assay: Inhibition of P-gp in doxorubicin-resistant human MCF7/ADR cells assessed as reversal of doxorubicin resistance by measuring doxorubicin IC50 incubated for 48 hrs by MTT assay (Rvb = doxorubicin alone = 64.8 +/- 2.1 uM)
MEASURED_ENDPOINT: IC50 (µM)
// note: answer is a bare numeric in µM

## Task What value of IC50 has been recorded for this entry: C=C1[C@H](OC(C)=O)[C@H]2[C@@H](OC(=O)c3ccccc3)[C@@H](C)C[C@]2(OC(C)=O)C(=O)[C@@H](C)/C=C/C(C)(C)C(=O)[C@H](O)[C@H]1OC(C)=O
## Result 13.3

## Task Same lookup for C=C1[C@H](OC(C)=O)CC(=O)C(C)(C)/C=C/[C@H](C)C(=O)[C@@]2(OC(C)=O)C[C@H](C)[C@H](OC(C)=O)[C@@H]2[C@H]1OC(=O)c1ccccc1 , please.
## Result 14.2

## Task Try the molecule C=C1[C@H](OC(C)=O)CC(=O)C(C)(C)/C=C/[C@H](C)C(=O)[C@@]2(OC(C)=O)C[C@H](C)[C@H](OC(=O)c3ccccc3)[C@@H]2[C@H]1OC(C)=O
## Result 13.1

* * *

Test: Inhibition of P-gp in doxorubicin-resistant human MCF7/ADR cells assessed as reversal of doxorubicin resistance by measuring doxorubicin IC50 incubated for 48 hrs by MTT assay (Rvb = doxorubicin alone = 64.8 +/- 2.1 uM)
MEASURED_ENDPOINT: IC50 (µM)
# value in µM; strip the unit string

## Task Data request, read-out IC50, for C=C1[C@H](OC(C)=O)[C@H]2[C@@H](OC(=O)c3ccccc3)[C@@H](C)C[C@]2(O)C(=O)[C@@H](C)/C=C/C(C)(C)C(=O)[C@H](O)[C@H]1OC(C)=O
## Result 25.3

## Task Now consider C=C1[C@H](OC(C)=O)[C@H]2[C@@H](OC(=O)c3ccccc3)[C@@H](C)C[C@]2(OC(C)=O)C(=O)[C@@H](C)/C=C/C(C)(C)C(=O)[C@H](OC(C)=O)[C@H]1OC(=O)c1ccccc1 and answer again.
## Result 8

## Task Lookup C=C1[C@H](OC(C)=O)[C@H]2[C@@H](OC(=O)CC(C)=O)[C@@H](C)C[C@]2(O)C(=O)[C@@H](C)/C=C/C(C)(C)C(=O)[C@H](OC(C)=O)[C@H]1OC(=O)c1ccccc1
## Result 10.3

## Task Repeat with C=C1[C@H](OC(=O)c2ccccc2)[C@H]2[C@@H](OC(C)=O)[C@@H](C)C[C@]2(OC(C)=O)C(=O)[C@@H](C)/C=C/C(C)(C)C(=O)[C@H](O)[C@H]1OC(C)=O
## Result 21.6

* * *

Assay: Inhibition of P-gp in doxorubicin-resistant human MCF7/ADR cells assessed as reversal of doxorubicin resistance by measuring doxorubicin IC50 incubated for 48 hrs by MTT assay (Rvb = doxorubicin alone = 64.8 +/- 2.1 uM)
Categorize each record by its IC50 using low group = under 8 µM, middle group = from 8 µM up to 10 µM, high group = 10 µM and over

## Task Any idea which band C=C1[C@H](OC(C)=O)[C@H]2[C@@H](OC(=O)c3ccccc3)[C@](C)(O)C[C@]2(O)C(=O)[C@@H](C)/C=C/C(C)(C)C(=O)[C@H](OC(=O)C(C)C)[C@H]1OC(C)=O is in?
## Result low group

## Task Can you handle C=C1[C@H](OC(C)=O)[C@H]2[C@@H](OC(=O)c3ccccc3)[C@@H](C)C[C@]2(OC(C)=O)C(=O)[C@@H](C)/C=C/C(C)(C)C(=O)[C@H](OC(C)=O)[C@H]1OC(C)=O next?
## Result middle group

## Task And the next one, C=C1[C@H](O)[C@H]2[C@@H](OC(=O)c3ccccc3)[C@](C)(OC(C)=O)C[C@]2(O)[C@H](OC(C)=O)[C@@H](C)/C=C/C(C)(C)C(=O)[C@H](OC(C)=O)[C@H]1OC(C)=O ?
## Result high group

## Task Entry to check: C=C1[C@H](OC(C)=O)[C@H]2[C@@H](OC(=O)c3ccccc3)[C@](C)(OC(C)=O)C[C@]2(O)C(=O)[C@@H](C)/C=C/C(C)(C)C(=O)[C@H](OC(C)=O)[C@H]1OC(=O)C(C)C
## Result high group

## Task Same question for C=C1[C@H](OC(C)=O)[C@H]2[C@@H](OC(=O)c3ccccc3)[C@](C)(OC(C)=O)C[C@]2(O)C(=O)[C@@H](C)/C=C/C(C)(C)C(=O)[C@H](OC(=O)C(C)C)[C@H]1OC(C)=O please.
## Result low group

## Task Then what about the compound C=C1[C@H](OC(=O)c2ccccc2)[C@H]2[C@@H](OC(C)=O)[C@@H](C)C[C@]2(OC(C)=O)C(=O)[C@@H](C)/C=C/C(C)(C)C(=O)[C@H](OC(=O)c2ccccc2)[C@H]1OC(C)=O ?
## Result low group

## Task Then what about the compound C=C1[C@H](OC(C)=O)[C@H]2[C@@H](OC(=O)c3ccccc3)[C@@H](C)C[C@]2(OC(C)=O)C(=O)[C@@H](C)/C=C/C(C)(C)C(=O)[C@H](O)[C@H]1OC(=O)c1ccccc1 ?
## Result middle group

## Task Try this compound next: C=C1[C@H](O)[C@H]2[C@@H](OC(=O)c3ccccc3)[C@](C)(O)C[C@]2(O)[C@H](OC(C)=O)[C@@H](C)/C=C/C(C)(C)C(=O)[C@H](OC(C)=O)[C@H]1OC(=O)c1ccccc1
## Result high group
